Value source: patent US20020028938A1

biological target: recombinant human Cox-1 (r-hu Cox1) (Homo sapiens, UniProt P23219); construct: made in house; host or cells: baculovirus/Sf9 insect cells (microsomes); test: Recombinant human PGHS-1 enzyme assay (RHUCX1); type: biochemical; conditions: 10 μM
Sequence (P23219 24-599): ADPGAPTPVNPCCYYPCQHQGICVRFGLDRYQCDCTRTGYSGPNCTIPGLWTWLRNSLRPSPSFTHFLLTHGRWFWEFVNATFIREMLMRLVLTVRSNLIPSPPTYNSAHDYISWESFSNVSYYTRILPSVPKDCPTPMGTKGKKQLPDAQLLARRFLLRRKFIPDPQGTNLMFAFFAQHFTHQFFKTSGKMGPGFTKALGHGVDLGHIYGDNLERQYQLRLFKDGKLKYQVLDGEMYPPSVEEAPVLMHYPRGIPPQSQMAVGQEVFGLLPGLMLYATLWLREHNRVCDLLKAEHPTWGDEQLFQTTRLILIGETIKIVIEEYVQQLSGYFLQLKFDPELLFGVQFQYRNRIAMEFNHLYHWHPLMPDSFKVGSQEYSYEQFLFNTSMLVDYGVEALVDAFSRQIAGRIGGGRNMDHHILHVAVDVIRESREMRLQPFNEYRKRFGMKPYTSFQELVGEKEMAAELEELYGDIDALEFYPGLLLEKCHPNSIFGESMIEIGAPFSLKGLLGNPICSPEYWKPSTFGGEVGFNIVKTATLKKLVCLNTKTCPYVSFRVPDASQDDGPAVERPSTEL
Catalogue of compounds with associated RHUCX1 % Inh. at Dose (μM)

Please review the following examples before continuing.
{"cpd.smiles": "CS(=O)(=O)c1ccc(-c2cnn(CC(F)(F)F)c(=O)c2OC2CCCCC2)cc1", "RHUCX1 % Inh. at Dose (μM)": "49 @ 10%"}
{"cpd.smiles": "CC(C)=CCOc1c(-c2ccc(S(C)(=O)=O)cc2)cnn(-c2ccc(F)cc2)c1=O", "RHUCX1 % Inh. at Dose (μM)": "82 @ 10%"}
{"cpd.smiles": "CS(=O)(=O)c1ccc(-c2cnn(-c3ccc(F)c(F)c3)c(=O)c2-c2cccs2)cc1", "RHUCX1 % Inh. at Dose (μM)": "54 @ 10%"}
{"cpd.smiles": "CC(C)=CCCOc1c(-c2ccc(S(N)(=O)=O)cc2)cnn(-c2ccc(F)c(F)c2)c1=O", "RHUCX1 % Inh. at Dose (μM)": "1 @ 10%"}

Shifting focus to the compound that follows.
I have this compound here, "NS(=O)(=O)c1ccc(-c2cnn(Cc3cccc(F)c3)c(=O)c2-c2ccc(F)cc2)cc1" , and I need its recorded RHUCX1 % Inh. at Dose (μM).
45 @ 10%
